Entries and their melting point values follow.

Query: Can you look up the measured melting point of O=C(/N=c1/scc(-c2ccc(Br)cc2)n1-c1cnc2ccccc2c1)c1ccccc1 [Compound 6g] for me?
Reply: 217 to 220 °C

Query: Name the recorded melting point for CCCCCC(=O)/N=c1/scc(-c2ccc(Br)cc2)n1-c1cnc2ccccc2c1 [Compound 6c] .
Reply: 181 to 182 °C

Query: Name the recorded melting point for CCCCCCC(=O)N=c1scc(-c2ccc(Br)cc2)n1-c1cnc2ccccc2c1 [Compound 6d] .
Reply: 188 to 190 °C

Query: Which melting point reading was recorded for the compound Cc1ccc(C(=O)/N=c2/scc(-c3ccc(Br)cc3)n2-c2cnc3ccccc3c2)cc1 [Compound 6h] ?
Reply: 103 to 105 °C
